# inhibition at 2 µM listing for each entry below
# study.system: Smoothened (SMO) (Mus musculus)
# Construct: C3H10T1/2 cells (ATCC #CCL-226) were split and seeded; endogenous in cells; host or cells: C3H10T1/2 (ATCC #CCL-226)
# Sequence (P56726 33-793): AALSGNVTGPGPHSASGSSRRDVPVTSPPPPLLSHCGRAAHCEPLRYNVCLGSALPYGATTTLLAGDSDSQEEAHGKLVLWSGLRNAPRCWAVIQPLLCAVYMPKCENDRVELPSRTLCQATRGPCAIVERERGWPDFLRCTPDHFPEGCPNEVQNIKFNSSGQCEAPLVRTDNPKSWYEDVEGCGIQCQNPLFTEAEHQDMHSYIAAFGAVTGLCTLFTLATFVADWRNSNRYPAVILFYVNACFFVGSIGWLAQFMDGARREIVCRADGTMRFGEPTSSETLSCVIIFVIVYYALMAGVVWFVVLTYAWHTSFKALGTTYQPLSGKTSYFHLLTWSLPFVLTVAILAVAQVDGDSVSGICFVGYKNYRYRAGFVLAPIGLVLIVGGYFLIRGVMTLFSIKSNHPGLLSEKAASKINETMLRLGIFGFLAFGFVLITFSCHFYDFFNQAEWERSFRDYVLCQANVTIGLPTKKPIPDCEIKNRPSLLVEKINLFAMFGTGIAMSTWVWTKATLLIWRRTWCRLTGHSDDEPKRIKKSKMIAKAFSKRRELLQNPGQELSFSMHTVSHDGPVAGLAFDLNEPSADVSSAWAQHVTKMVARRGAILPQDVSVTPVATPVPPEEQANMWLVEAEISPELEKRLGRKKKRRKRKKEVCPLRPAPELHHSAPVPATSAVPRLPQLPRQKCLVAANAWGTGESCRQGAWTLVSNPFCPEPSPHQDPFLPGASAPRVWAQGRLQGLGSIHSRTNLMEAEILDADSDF
# assay.summary: Smoothened (SMO)/Sonic Hedgehog (SHh) Transient Transcriptional Activation Assay (Gli-luciferase reporter in C3H10T1/2 cells)
# Type: cell-based, murine
# measurement.conditions: C3H 10T1/2, 2 μM compound; transfected C3H10T1/2 cells, recombinant human SHh 250 ng/mL, 20 hours, luciferase readout; read-out: SMO CELL % INHIBITION @ 2 μM
Counter-ions that a name gives are not always drawn.

>  <molecule>
COc1ccc(NC(=O)N[C@@H]2CCN(C)[C@@H](c3nc4cc(C(F)(F)F)ccc4[nH]3)C2)cn1 [Example 135, hydrochloride]

>  <readout.unit>
%

>  <inhibition at 2 µM>
104

$$$$
>  <molecule>
CN1CC[C@@H](NC(=O)c2ccc3c(c2)OCCO3)C[C@H]1c1nc2ccccc2[nH]1 [Example 42, hydrochloride]

>  <readout.unit>
%

>  <inhibition at 2 µM>
106

$$$$
>  <molecule>
CN1CC[C@@H](NC(=O)c2ccc3c(c2)CCO3)C[C@@H]1c1nc2ccccc2[nH]1 [Example 47, hydrochloride]

>  <readout.unit>
%

>  <inhibition at 2 µM>
105

$$$$
>  <molecule>
O=C(N[C@@H]1CCN(C2CCC2)[C@@H](c2nc3ccccc3[nH]2)C1)c1ccc2c(c1)OCCO2 [Example 82, hydrochloride]

>  <readout.unit>
%

>  <inhibition at 2 µM>
96.8

$$$$
>  <molecule>
CN1CC[C@@H](NC(=O)Cc2ccc(Cl)s2)C[C@@H]1c1nc2ccccc2[nH]1 [Example 78, hydrochloride]

>  <readout.unit>
%

>  <inhibition at 2 µM>
99.3

$$$$
>  <molecule>
CN1CC[C@@H](NC(=O)c2ccc3c(c2F)OCCO3)C[C@@H]1c1nc2ccccc2[nH]1 [Example 141, trifluoroacetate]

>  <readout.unit>
%

>  <inhibition at 2 µM>
85.3

$$$$
>  <molecule>
COc1cncc(NC(=O)N[C@@H]2CCN(C)[C@@H](c3nc4ccccc4[nH]3)C2)c1 [Example 96, hydrochloride]

>  <readout.unit>
%

>  <inhibition at 2 µM>
76.3

$$$$
>  <molecule>
CN1CC[C@@H](NC(=O)c2ccc3c(c2)CCCO3)C[C@@H]1c1nc2ccccc2[nH]1 [Example 33, hydrochloride]

>  <readout.unit>
%

>  <inhibition at 2 µM>
114

$$$$
>  <molecule>
CN1CC[C@@H](NC(=O)Nc2ccccc2)C[C@@H]1c1nc2ccccc2[nH]1 [Example 75, hydrochloride]

>  <readout.unit>
%

>  <inhibition at 2 µM>
100

$$$$
>  <molecule>
Cc1cc2nc([C@H]3C[C@H](NC(=O)Nc4ccc(C#N)cc4)CCN3C)[nH]c2cc1C [Example 52, hydrochloride]

>  <readout.unit>
%

>  <inhibition at 2 µM>
105

$$$$
>  <molecule>
CC(C)CCN1CC[C@@H](NC(=O)Nc2ccc(C#N)cc2)C[C@@H]1c1nc2ccccc2[nH]1

>  <readout.unit>
%

>  <inhibition at 2 µM>
104

$$$$
>  <molecule>
COc1ccc2[nH]c([C@H]3C[C@H](NC(=O)Nc4ccc(OC)nc4)CCN3C)nc2c1 [Example 136, hydrochloride]

>  <readout.unit>
%

>  <inhibition at 2 µM>
106

$$$$
>  <molecule>
Cc1ccc2[nH]c([C@H]3C[C@H](NC(=O)Nc4ccc(C(F)(F)F)nc4)CCN3C)nc2c1 [Example 65, hydrochloride]

>  <readout.unit>
%

>  <inhibition at 2 µM>
103

$$$$
>  <molecule>
CN1CC[C@@H](NC(=O)c2ccc(-c3cnco3)cc2)C[C@@H]1c1nc2ccccc2[nH]1 [Example 92, hydrochloride]

>  <readout.unit>
%

>  <inhibition at 2 µM>
86.4

$$$$
